target: ADP-ribosylation factor GTPase-activating protein 1 (Rattus norvegicus) (UniProt Q62848); assay: blockers of ARFGAP1-stimulated ARF1 GTP hydrolysis – biochemical, fluorescence polarization, GDP tracer, primary screen (AID 651572); details: GDP FP detection, at 16.5 µM, active compounds read high;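 also: 0% = DMSO wells with enzyme and 100% = wells lacking Arfgap1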
Sequence (Q62848 1-136 limits assumed): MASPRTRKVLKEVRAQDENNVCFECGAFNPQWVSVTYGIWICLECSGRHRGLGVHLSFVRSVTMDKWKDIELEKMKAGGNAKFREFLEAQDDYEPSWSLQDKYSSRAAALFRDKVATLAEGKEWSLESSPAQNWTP
About 950 (0.26%) of roughly 360,000 compounds were called active. Many of the other results were omitted from the sample, so actives are more common in it than they were.
Property Measured: inhibition (%)
Use % as the unit, but write only the number.

Exercise: I'd like to know its inhibition. The molecule in question is CCOC(=O)Cn1c2c(n(-c3ccc(F)cc3)c1=O)C=C(c1ccccc1)[C@@H](C)C(C(=O)N(C)C1CCCCC1)=C2
Solution: -3.57

Exercise: I'd like to know its inhibition. The molecule in question is Nc1ncnc2c1ncn2C1OC(CO)CC1O (configuration not stated)
Solution: 3.3

Exercise: I'd like to know its inhibition. The molecule in question is CCOC(=O)N1CCN(C(=O)C[C@H]2C[C@@]3(C(=O)OC)C(=C[C@H](C4CCCC4)O[C@@H]3C)N(Cc3ccccc3)C2=O)CC1
Solution: -0.91

Exercise: I'd like to know its inhibition. The molecule in question is Cc1ccc(NC(=O)c2ccc(Oc3ncccn3)cc2)cc1
Solution: 25.6

Exercise: I'd like to know its inhibition. The molecule in question is COc1cc(C2C(C(=O)c3ccco3)=C(O)C(=O)N2c2cc(C)on2)ccc1OCc1ccccc1 (configuration not stated)
Solution: -0.46
